Origin of measurements: patent US20180171001A1

As shown below, each of these binders has a reported neutralization IC50 value.
- test-target: Env of HIV-1 strain R1166.c1 (HIV-1)
- assay-method-text: cell-based or functional assay
value-kind: neutralization IC50 (µg/mL)

binder	value-kind	unit-symbol	readout-value
γ59κ61 (antibody, V domains shown) VH: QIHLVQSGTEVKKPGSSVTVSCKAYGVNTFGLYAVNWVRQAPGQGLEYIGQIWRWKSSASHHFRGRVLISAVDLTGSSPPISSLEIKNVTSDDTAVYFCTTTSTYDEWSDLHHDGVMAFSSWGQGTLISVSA VL: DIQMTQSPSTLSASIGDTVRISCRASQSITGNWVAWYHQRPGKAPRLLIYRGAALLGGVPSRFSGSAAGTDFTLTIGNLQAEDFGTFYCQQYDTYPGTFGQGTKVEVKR	neutralization IC50	µg/mL	7.46
γ52κ5 (antibody, V domains shown) VH: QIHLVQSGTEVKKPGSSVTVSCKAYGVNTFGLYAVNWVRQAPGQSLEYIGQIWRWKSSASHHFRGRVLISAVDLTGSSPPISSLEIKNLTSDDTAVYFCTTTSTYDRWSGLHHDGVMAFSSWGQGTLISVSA VL: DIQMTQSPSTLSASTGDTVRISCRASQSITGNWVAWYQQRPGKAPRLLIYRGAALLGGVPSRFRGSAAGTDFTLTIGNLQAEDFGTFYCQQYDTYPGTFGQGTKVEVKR	neutralization IC50	µg/mL	0.319
γ8κ3 (antibody, V domains shown) VH: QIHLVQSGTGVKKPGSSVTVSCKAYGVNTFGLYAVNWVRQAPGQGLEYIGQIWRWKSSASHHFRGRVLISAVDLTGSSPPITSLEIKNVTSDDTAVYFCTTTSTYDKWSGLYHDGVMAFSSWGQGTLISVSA VL: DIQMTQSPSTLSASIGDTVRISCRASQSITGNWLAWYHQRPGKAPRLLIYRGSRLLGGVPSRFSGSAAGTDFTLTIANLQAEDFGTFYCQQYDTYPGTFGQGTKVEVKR	neutralization IC50	µg/mL	7.6
